# Test system: cancer cell lines
# method-notes: Cancer cell proliferation activity (CellTiterGlo, 72 h)
# Format: cell-based
# experimental-setup: Homo sapiens, THP-1, 72 h, THP-1 (hematological), 72 h; read-out: IC50 cell proliferation
readout-name: log10 IC50 (log10 of the value in nM)
The common logarithm of IC50 in nM is what is listed.

Record excerpt, results attached:
1) Nc1nc(F)nc2c1ncn2[C@@H]1O[C@H](CO)[C@@H](O)[C@@H]1O [compound 170]	3.77
2) Nc1nc(F)nc2c1ncn2[C@H]1C[C@H](O)[C@@H](CO)O1 [compound 171]	2.11
3) C[C@]1(CO)O[C@@H](n2ccc(N)nc2=O)C(F)(F)[C@@H]1O [Cpd. No. 190]	3.54
4) CCC[C@]1(CO)O[C@@H](n2cnc3c(N)nc(F)nc32)[C@H](O)[C@@H]1O [compound 195]	2.30
5) Nc1nc(=O)n([C@H]2C[C@H](O)[C@@H](CO)O2)cc1F [compound 169]	0.30
6) Nc1nc(=O)n([C@H]2C[C@H](O)[C@](CO)(CF)O2)cc1F [Cpd. No. 197]	2.12

Please give the documented log10 IC50 of C[C@]1(CO)O[C@@H](n2ccc(N)nc2=O)[C@@H](O)[C@@H]1O [Cpd. No. 193] 3.47

Please give the documented log10 IC50 of Nc1ccn([C@H]2C[C@H](O)[C@](CO)(CF)O2)c(=O)n1 [Cpd. No. 198] 2.81

Please give the documented log10 IC50 of C[C@]1(CO)O[C@@H](n2cnc3c(N)nc(F)nc32)[C@H](O)[C@@H]1O [Cpd. No. 178] 3.25

Please give the documented log10 IC50 of Nc1nc(F)nc2c1ncn2[C@@H]1O[C@H](CO)[C@@H](O)[C@H]1O [compound 184] 1.30
